B1: Glucocorticoid receptor, residues 419 to 494; numbered along this chain, P04150 (parent)
chain: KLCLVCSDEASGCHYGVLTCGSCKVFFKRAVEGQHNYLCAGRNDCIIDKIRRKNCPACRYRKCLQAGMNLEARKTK

Variants of: B1
Test Summary: abundance fitness (aPCA) (normalised: wild type 0, dead -1); higher = more abundant; growth selection in yeast, the domain comes from the species named
Conditions: Homo sapiens
Binary call on abundance fitness: 1 from -0.03 upward, 0 beneath that.

Examples with answers:
H14D | 1
K74A | 0
G41R | 1
D8M | 0

Kindly review the next variant as well.
Inquiry: Dear colleague, could you confirm whether S11H has abundance fitness at or above -0.03?
Reply text: 1
